- Read-out: Nuclear factor erythroid 2-related factor 2 (Homo sapiens) (UniProt Q16236)
- Sequence (Q16236 whole entry, looked up): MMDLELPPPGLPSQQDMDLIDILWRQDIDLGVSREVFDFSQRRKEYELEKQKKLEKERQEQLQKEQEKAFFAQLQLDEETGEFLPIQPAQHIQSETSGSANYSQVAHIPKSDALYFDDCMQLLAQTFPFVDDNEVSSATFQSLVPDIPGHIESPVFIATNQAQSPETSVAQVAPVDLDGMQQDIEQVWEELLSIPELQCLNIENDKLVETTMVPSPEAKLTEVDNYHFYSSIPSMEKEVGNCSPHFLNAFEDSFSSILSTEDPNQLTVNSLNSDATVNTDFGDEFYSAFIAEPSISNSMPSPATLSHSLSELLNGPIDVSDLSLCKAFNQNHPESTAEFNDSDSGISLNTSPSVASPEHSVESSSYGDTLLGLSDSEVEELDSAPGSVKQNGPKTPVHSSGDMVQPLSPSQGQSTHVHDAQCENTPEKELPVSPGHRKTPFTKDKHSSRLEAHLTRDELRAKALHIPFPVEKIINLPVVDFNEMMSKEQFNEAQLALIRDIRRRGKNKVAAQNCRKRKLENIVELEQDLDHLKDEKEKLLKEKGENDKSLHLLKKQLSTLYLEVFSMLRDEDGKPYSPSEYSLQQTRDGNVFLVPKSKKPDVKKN
- methodDescription: LTEA_HepaRG_NFE2L2: Life Technologies and Expression Analysis (LTEA) Assay for Nuclear factor erythroid 2-related factor 2 (NFE2L2) Transcription Factor using HepaRG (AID 2283527);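 for outcome: TaqMan qRT-PCR transcript level normalised to ACTB GAPDH and POLR2A housekeeping genes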
- conditionSet: mRNA level, 48 h; actives raise or lower the signal
Calls of active or inactive are those of the source. Rule for the calls: active = hit-call score of the fitted dose curve at least 0.9, where 1 is the maximum; inactive = score below 0.9.
Give one outcome, nothing more. List: 1 (yes) = active, 0 (no) = inactive

Please review the following examples before continuing.
{"columns": ["molecule", "qualitativeLabel"],
 "data": [
  ["O=C(NC(=O)c1cc(F)c(F)cc1Cl)Nc1cc(F)ccc1N1CCC(C(=O)O)CC1", "0 (no)"],
  ["COc1ccc(O)c(C(C)(C)C)c1", "0 (no)"]
]}

Incoming: What is the recorded call for this molecule in the test? `NS(=O)(=O)C(F)(F)C(F)(F)C(F)(F)C(F)(F)C(F)(F)C(F)(F)C(F)(F)C(F)(F)F`
Outgoing: 1 (yes)

Incoming: Dear colleague, could you share the recorded outcome for `Nc1ccc(-c2ccc(N)cc2)cc1` when you have a moment?
Outgoing: 0 (no)

Incoming: Fill in: this test's call for CCC(C)c1cc([N+](=O)[O-])cc([N+](=O)[O-])c1O (stereo not drawn) is ___
Outgoing: 0 (no)

Incoming: Any idea what this test logged for `CCNc1nc(NC(C)C)nc(SC)n1` ?
Outgoing: 0 (no)

Incoming: Call for entry `CCCN(CCC)N=O` :
Outgoing: 0 (no)

###

- methodDescription: APR_HepG2_MitoMembPot_24hr: Apredica 24-hour HepG2 Assay for Mitochondrial Membrane Potential (AID 2282911)
- conditionSet: imaging, actives raise or lower the signal
Activity calls are given as the source filed them. How the source made its calls: active means hit-call score of the fitted dose curve at least 0.9, where 1 is the maximum; inactive means score below 0.9.
Valid outcomes are listed here; reply with one: class 1 = active, class 0 = inactive

Use these answered entries as a reference point.
{"columns": ["compound", "qualitativeLabel"],
 "data": [
  ["Cc1cc(-c2ccc(N)c(C)c2)ccc1N", "class 0"],
  ["CC(C)(O)C(=O)Nc1ccc([N+](=O)[O-])c(C(F)(F)F)c1", "class 0"],
  ["CCC(C)c1cc([N+](=O)[O-])cc([N+](=O)[O-])c1O (stereo not drawn)", "class 1"],
  ["Oc1ccc(C(c2ccc(O)cc2)(C(F)(F)F)C(F)(F)F)cc1", "class 0"],
  ["CN(C)c1nc(=O)n(C2CCCCC2)c(=O)n1C", "class 0"]
]}

Incoming: Outcome? `Cc1cccc(C)c1N`
Outgoing: class 0

Incoming: Record lookup: outcome of this test for `O=NN(c1ccccc1)c1ccccc1` ?
Outgoing: class 0

Incoming: How was `CCC(C)(c1ccc(O)cc1)c1ccc(O)cc1` classified in this test?
Outgoing: class 1

Incoming: For this compound, state the assay outcome: `ClC1=C(Cl)[C@]2(Cl)[C@@H]3[C@H]4C[C@H]([C@@H]5O[C@H]45)[C@@H]3[C@@]1(Cl)C2(Cl)Cl`
Outgoing: class 1

Incoming: Test call for this compound, please: `Cc1ccccc1CO[C@@H]1C[C@@]2(C(C)C)CC[C@]1(C)O2`
Outgoing: class 0

###

- Read-out: Matrix Metallopeptidase 9 (MMP9), MMP9 (gene 4318)
- methodDescription: BSK_KF3CT_MMP9: BioMAP Diversity Plus: KF3CT Assay for Matrix Metallopeptidase 9 (MMP9) Biomarker Activity (AID 2283074);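 for AC50: MMP9 protein level quantified by ELISA in the co-culture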
- conditionSet: primary human keratinocytes with fibroblasts; actives raise or lower the signal
Activity calls are given as the source filed them. The calls were made as follows: active = hit-call score of the fitted dose curve at least 0.9, where 1 is the maximum; inactive = score below 0.9.
quantity: AC50

Previously resolved entries follow.
{"columns": ["compound", "reported"],
 "data": [
  ["CC(c1ccc(O)cc1)(c1ccc(O)cc1)c1ccc(O)cc1", "25.2 µM (active)"],
  ["c1cc2ccc3cccc4ccc(c1)c2c34", "inactive"],
  ["Cc1cccc([N+](=O)[O-])c1", "inactive"],
  ["CCOCCOC(C)=O", "inactive"],
  ["CC(C)(O)C(=O)Nc1ccc([N+](=O)[O-])c(C(F)(F)F)c1", "inactive"],
  ["C=CC(N)=O", "inactive"]
]}

For each of the compounds below, state AC50.
1. O=C(NC(=O)c1cc(F)c(F)cc1Cl)Nc1cc(F)ccc1N1CCC(C(=O)O)CC1
2. Sc1ccccc1
3. CC(C)C(=O)OCC(C)(C)C(OC(=O)C(C)C)C(C)C (stereo not drawn)
4. CO/C=C(/C(=O)OC)c1ccccc1COc1cccc(C(F)(F)F)n1
5. Cc1cc(-c2ccc(N)c(C)c2)ccc1N
6. Oc1ccc(Cl)cc1Cl

Outgoing:
inactive
inactive
inactive
12.7 µM (active)
inactive
inactive

Incoming: Return AC50 (reported value) for this compound: `O=C(NC(=O)c1c(F)cccc1F)Nc1cc(Cl)c(OC(F)(F)C(F)F)c(Cl)c1`
Outgoing: inactive
